# ASSAYED_TARGET: SIK3 (Homo sapiens, UniProt Q9Y2K2)
# Construct: purchased SignalChem S12-11G-100
# Sequence (Q9Y2K2 whole entry): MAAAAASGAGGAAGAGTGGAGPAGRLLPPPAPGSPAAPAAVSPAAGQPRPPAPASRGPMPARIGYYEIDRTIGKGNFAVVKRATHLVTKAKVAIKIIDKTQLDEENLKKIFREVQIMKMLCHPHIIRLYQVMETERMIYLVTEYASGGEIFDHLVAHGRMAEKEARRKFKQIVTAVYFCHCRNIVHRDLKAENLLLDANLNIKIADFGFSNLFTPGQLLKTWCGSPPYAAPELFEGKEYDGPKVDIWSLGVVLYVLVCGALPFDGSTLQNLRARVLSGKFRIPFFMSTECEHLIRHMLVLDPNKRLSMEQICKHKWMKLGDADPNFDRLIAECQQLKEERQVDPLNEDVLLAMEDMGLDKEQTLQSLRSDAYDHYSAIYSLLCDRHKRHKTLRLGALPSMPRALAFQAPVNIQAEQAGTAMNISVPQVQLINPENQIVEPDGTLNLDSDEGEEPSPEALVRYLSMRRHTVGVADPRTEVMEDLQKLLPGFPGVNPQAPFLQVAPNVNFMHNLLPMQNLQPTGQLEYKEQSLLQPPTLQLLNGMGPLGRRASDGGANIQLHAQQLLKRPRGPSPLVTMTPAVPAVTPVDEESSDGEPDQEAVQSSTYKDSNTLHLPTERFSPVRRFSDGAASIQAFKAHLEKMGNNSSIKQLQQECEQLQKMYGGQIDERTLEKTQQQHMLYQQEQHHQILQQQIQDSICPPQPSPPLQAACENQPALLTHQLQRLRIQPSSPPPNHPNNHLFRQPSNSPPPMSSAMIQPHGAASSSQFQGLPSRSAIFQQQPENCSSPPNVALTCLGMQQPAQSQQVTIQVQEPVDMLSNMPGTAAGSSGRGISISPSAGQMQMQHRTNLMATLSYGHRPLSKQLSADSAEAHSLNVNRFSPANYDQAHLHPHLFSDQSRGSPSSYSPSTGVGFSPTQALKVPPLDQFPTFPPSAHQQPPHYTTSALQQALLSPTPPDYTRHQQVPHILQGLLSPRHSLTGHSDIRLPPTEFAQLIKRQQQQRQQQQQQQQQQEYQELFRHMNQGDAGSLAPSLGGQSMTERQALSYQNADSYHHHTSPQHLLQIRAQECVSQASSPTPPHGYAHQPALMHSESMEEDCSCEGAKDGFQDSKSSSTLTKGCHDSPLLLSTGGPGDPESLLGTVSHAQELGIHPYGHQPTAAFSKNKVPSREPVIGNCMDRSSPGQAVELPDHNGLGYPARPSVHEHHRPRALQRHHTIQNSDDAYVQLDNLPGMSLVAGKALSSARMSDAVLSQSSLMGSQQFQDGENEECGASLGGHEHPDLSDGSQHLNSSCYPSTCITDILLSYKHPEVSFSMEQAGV
# PROCEDURE_SUMMARY: biochemical
Entries and their IC50
PARAMETER_MEASURED: IC50

COMPOUND: COc1cc(-n2cnc3cc(-c4cncnc4)ccc32)cc(OC)c1C(=O)NCC(F)(F)F [compound 104]
READOUT_VALUE: 100 to 500 nM

COMPOUND: COc1cc(-c2cnc3cc(-c4cnn(C)c4)ccn23)cc2c1C(=O)N(CC(F)(F)F)CC2 [Cpd 225]
READOUT_VALUE: 0.01 to 10 nM

COMPOUND: COc1cc(-c2cnc3cc(-c4cnn(C)c4)ccn23)cc(F)c1C(=O)NCC(F)(F)F [compound 203]
READOUT_VALUE: 0.01 to 10 nM

COMPOUND: COc1cc(-n2cnc3cc(-c4cnn(CC#N)c4)ccc32)cc(OC)c1C(=O)NCC(F)(F)F [compound 40]
READOUT_VALUE: 0.01 to 10 nM

COMPOUND: CCNC(=O)c1c(OC)cc(-c2cnc3cc(-c4ccc(C#N)nc4)ccn23)cc1OC(F)F [compound 146]
READOUT_VALUE: 10 to 100 nM

COMPOUND: COc1cc(-n2cnc3cc(-c4cnn(C)c4)ccc32)cc(OC)c1C(=O)N1CCC1 [compound 162]
READOUT_VALUE: 10 to 100 nM

COMPOUND: COc1cc(-n2cnc3cc(-c4cnn(C)c4)ccc32)cc(OC)c1C(=O)NCc1nccn1C [compound 71]
READOUT_VALUE: 100 to 500 nM

COMPOUND: CCNC(=O)c1c(OC)cc(-c2cnc3cc(-c4cnn(C)c4)ccn23)cc1OC(F)F [compound 116]
READOUT_VALUE: 0.01 to 10 nM

COMPOUND: COc1cc(-n2cnc3cc(-c4cnn(CCN5CCOCC5)c4)ccc32)cc(OC)c1C(=O)NCC(F)(F)F [compound 41]
READOUT_VALUE: 0.01 to 10 nM

COMPOUND: COc1cc(-n2cnc3cc(-c4cnccn4)ccc32)cc(OC)c1C(=O)NCC(F)(F)F [compound 128]
READOUT_VALUE: 100 to 500 nM

###

# ASSAYED_TARGET: SIK3 (Homo sapiens)
# Construct: purchased SignalChem S12-11G-100
# PROCEDURE_SUMMARY: biochemical
pIC50: −log10 of the molar value.
pIC50 reference

INPUT_SMILES: COc1cc(-n2cnc3cc(-c4cc(C)no4)ccc32)cc(OC)c1C(=O)NCC(F)(F)F
pIC50: 7.00 to 8.00

INPUT_SMILES: COc1cc(-n2cnc3cc(-c4cnn(C5CNC5)c4)ccc32)cc(OC)c1C(=O)NCC(F)(F)F
pIC50: 8.00 to 11.00

INPUT_SMILES: CCn1cc(-c2ccc3c(c2)ncn3-c2cc(OC)c(C(=O)NCC#N)c(OC)c2)cn1
pIC50: 8.00 to 11.00

###

# ASSAYED_TARGET: SIK1 (Homo sapiens)
# Construct: purchased Carna Biosciences 02-131
# PROCEDURE_SUMMARY: biochemical
# TEST_PARAMETERS: 33P radioactive SIK kinase assay, AMARA peptide, 10 μM ATP; read-out: SIK1 IC50
# Method: The principle of the ^33P radioactive kinase assay consists in measuring the incorporated ^33P into the substrate AMARA peptide when phosphorylated by SIK1, SIK2 or SIK3 using [^33P]-g-ATP, which correlates with kinase activity. […] After harvesting the kinase reactions, the filter plates are washed 6 times with phosphoric acid (75 mM). […] The top of the plates are sealed with TopSeal-A. Read-out is performed with a TopCount instrument (PerkinElmer Inc.).
Reported IC50 values for a set of compounds
PARAMETER_MEASURED: IC50

COMPOUND: CCNC(=O)c1c(OC)cc(-n2cnc3cc(-c4cnn(CCN5CCOCC5)c4)ccc32)cc1OC
ASSAYED_TARGET: SIK1 (Homo sapiens)
READOUT_VALUE: 10 to 100 nM
//
COMPOUND: COc1cc(-n2cnc3cc(-c4cnn(C)c4)ccc32)cc(OC)c1C(=O)NCC(F)(F)F
ASSAYED_TARGET: SIK1 (Homo sapiens)
READOUT_VALUE: 10 to 100 nM
//
COMPOUND: COc1cc(-c2cnc3cc(-c4cn[nH]c4)ccn23)cc(OC)c1C(=O)NCC(F)(F)F
ASSAYED_TARGET: SIK1 (Homo sapiens)
READOUT_VALUE: 0.01 to 10 nM
//
COMPOUND: COc1cc(-n2cnc3cc(-c4cnc(C)[nH]4)ccc32)cc(OC)c1C(=O)NCC(F)(F)F
ASSAYED_TARGET: SIK1 (Homo sapiens)
READOUT_VALUE: 10 to 100 nM
//
COMPOUND: COc1cc(-c2cnc3cc(-c4ccnnc4)ccn23)cc(OC)c1C(=O)NCC(F)(F)F
ASSAYED_TARGET: SIK1 (Homo sapiens)
READOUT_VALUE: 10 to 100 nM
//
COMPOUND: COc1ccc(-c2ccn3c(-c4cc(OC)c(C(=O)NCC(F)(F)F)c(OC)c4)cnc3c2)cn1
ASSAYED_TARGET: SIK1 (Homo sapiens)
READOUT_VALUE: 10 to 100 nM
//
COMPOUND: CCn1cc(-c2ccc3c(c2)ncn3-c2cc(OC)c(C(=O)NC3CCC3)c(OC)c2)cn1
ASSAYED_TARGET: SIK1 (Homo sapiens)
READOUT_VALUE: 10 to 100 nM
//
COMPOUND: CCNC(=O)c1c(OC)cc(-c2cnc3cc(-c4ccnnc4)ccn23)cc1OC(F)F
ASSAYED_TARGET: SIK1 (Homo sapiens)
READOUT_VALUE: 10 to 100 nM
//
COMPOUND: COc1cc(-n2cnc3cc(-c4cnn(C)c4)ccc32)cc(OC)c1C(=O)N1CC(O)(C(F)(F)F)C1
ASSAYED_TARGET: SIK1 (Homo sapiens)
READOUT_VALUE: 0.01 to 10 nM
//
COMPOUND: CCn1cc(-c2ccc3c(c2)ncn3-c2cc(OC)c(C(=O)NC3C[C@H]3C)c(OC)c2)cn1 (stereo partly drawn)
ASSAYED_TARGET: SIK1 (Homo sapiens)
READOUT_VALUE: 10 to 100 nM
//
COMPOUND: COc1cc(-c2cnn3cc(-c4cnn(C)c4)cnc23)cc(OC)c1C(=O)NCC(F)F
ASSAYED_TARGET: SIK1 (Homo sapiens)
READOUT_VALUE: 10 to 100 nM
//
COMPOUND: COc1cc(-n2cnc3cc(-c4cnnc(C)c4)ccc32)cc(OC)c1C(=O)NCC(F)(F)F
ASSAYED_TARGET: SIK1 (Homo sapiens)
READOUT_VALUE: > 500 nM

###

# ASSAYED_TARGET: SIK3 (Homo sapiens)
# Construct: purchased SignalChem S12-11G-100
# PROCEDURE_SUMMARY: biochemical
# TEST_PARAMETERS: ADP-Glo SIK kinase assay
Reported IC50 values for the following compounds.

COMPOUND: COc1cc(-c2cnc3cc(-c4ccc(N5CCOCC5)nn4)ccn23)cc(OC(F)F)c1C(=O)NC1CC1 [compound 286]
IC50: 0.01 to 10 nM

COMPOUND: COc1cc(-c2cnc3cc(-c4cn[nH]c4)ccn23)cc(OC)c1C(=O)NCC(F)(F)F [compound 227]
IC50: 0.01 to 10 nM

COMPOUND: COc1cc(-n2cnc3cc(-c4cnn(C)c4)ccc32)cc(OC)c1C(=O)N1CC(F)(F)C1 [compound 142]
IC50: 10 to 100 nM

COMPOUND: CCN1Cc2cc(-n3cnc4cc(-c5cnn(C)c5)ccc43)cc(NCCO)c2C1=O [Cpd 202]
IC50: 100 to 500 nM

###

# ASSAYED_TARGET: SIK1 (Homo sapiens, UniProt P57059)
# Construct: purchased Carna Biosciences 02-131
# Sequence (P57059 whole entry): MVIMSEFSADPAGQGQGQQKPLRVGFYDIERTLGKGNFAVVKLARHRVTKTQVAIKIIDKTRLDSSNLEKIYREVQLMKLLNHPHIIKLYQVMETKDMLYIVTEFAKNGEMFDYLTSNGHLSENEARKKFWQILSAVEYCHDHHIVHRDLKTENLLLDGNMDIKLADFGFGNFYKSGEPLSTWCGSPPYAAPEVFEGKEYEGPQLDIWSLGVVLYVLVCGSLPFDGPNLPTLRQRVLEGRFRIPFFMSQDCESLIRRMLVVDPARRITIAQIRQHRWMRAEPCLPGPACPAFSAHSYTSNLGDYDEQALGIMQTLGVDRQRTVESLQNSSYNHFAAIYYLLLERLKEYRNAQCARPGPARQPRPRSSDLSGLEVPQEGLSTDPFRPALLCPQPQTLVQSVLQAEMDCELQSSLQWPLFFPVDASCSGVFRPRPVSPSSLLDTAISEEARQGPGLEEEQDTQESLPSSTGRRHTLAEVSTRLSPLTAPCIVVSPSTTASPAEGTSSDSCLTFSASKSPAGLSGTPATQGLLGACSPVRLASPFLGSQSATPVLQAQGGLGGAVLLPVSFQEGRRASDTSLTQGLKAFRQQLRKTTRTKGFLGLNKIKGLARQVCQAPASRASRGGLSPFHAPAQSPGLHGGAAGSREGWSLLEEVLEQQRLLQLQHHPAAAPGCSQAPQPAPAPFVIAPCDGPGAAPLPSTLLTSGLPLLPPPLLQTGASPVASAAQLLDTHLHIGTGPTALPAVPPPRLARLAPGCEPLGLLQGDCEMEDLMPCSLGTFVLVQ
# PROCEDURE_SUMMARY: biochemical
# TEST_PARAMETERS: ADP-Glo SIK kinase assay
PARAMETER_MEASURED: IC50

MOLECULE: COc1cc(-c2cnc3cc(-c4cnn(C)c4)ccn23)cc(OC)c1C(=O)NCC(F)F
READOUT_VALUE: 0.01 to 10 nM

MOLECULE: [2H]C([2H])([2H])Oc1cc(-c2cnc3cc(-c4cnn(C)c4)ccn23)cc(OC([2H])([2H])[2H])c1C(=O)NCC(F)(F)F
READOUT_VALUE: 0.01 to 10 nM

MOLECULE: COc1cc(-c2cnc3cc(-c4cnn(C(C)(C)C(=O)O)c4)ccn23)cc(OC)c1C(=O)NCC(F)(F)F
READOUT_VALUE: 0.01 to 10 nM

MOLECULE: COc1cc(-c2cnc3cc(-c4cncn4C)ccn23)cc(OC(F)F)c1C(=O)NC1CC1
READOUT_VALUE: 10 to 100 nM

MOLECULE: COc1cc(-c2cnc3cc(-c4cnn(C)c4)c(OC(C)C#N)cn23)cc(OC(F)F)c1C(=O)NC1CC1 (centres unmarked)
READOUT_VALUE: 0.01 to 10 nM

MOLECULE: COc1cc(-c2cnc3cc(-c4cnn(C)c4)ccn23)cc(OC)c1C(=O)NCC(F)(F)F
READOUT_VALUE: 0.01 to 10 nM

MOLECULE: COc1cc(-n2cnc3cc(-c4cnn(C)c4)ccc32)cc(OC)c1C(=O)N1CC(C#N)C1
READOUT_VALUE: 10 to 100 nM

MOLECULE: CCOC(=O)C(Cn1cc(-c2ccn3c(-c4cc(OC)c(C(=O)NCC(F)(F)F)c(OC)c4)cnc3c2)cn1)C(C)C (centres unmarked)
READOUT_VALUE: 0.01 to 10 nM

MOLECULE: COc1cc(-c2cnc3cc(-c4cnccc4C(N)=O)ccn23)cc(OC)c1C(=O)NCC(F)(F)F
READOUT_VALUE: > 500 nM

MOLECULE: COc1cc(-c2cnc3cc(-c4cnn(C)c4)ccn23)cc2c1C(=O)N(CC(F)(F)F)CC2
READOUT_VALUE: 0.01 to 10 nM

MOLECULE: COc1cc(-c2cnc3cc(-c4ccc(C5CC5)nn4)ccn23)cc(OC(F)F)c1C(=O)NC1CC1
READOUT_VALUE: 0.01 to 10 nM

MOLECULE: COc1cc(-c2cnc3cc(-c4cnn(C)c4)ccn23)cc(OC)c1C(=O)N[C@H](C)C(F)(F)F
READOUT_VALUE: 0.01 to 10 nM

MOLECULE: COc1cc(-c2cnc3cc(-c4cnn(C)c4)ccn23)cc(OCCO)c1C(=O)NC1CC1
READOUT_VALUE: 0.01 to 10 nM

MOLECULE: COc1cc(-c2cnc3cc(-c4cnccc4C#N)ccn23)cc(OC)c1C(=O)NCC(F)(F)F
READOUT_VALUE: > 500 nM
